The following molecules are shown together with reported pIC50 values.
Target: B-Raf kinase (SEQ. ID NO: 2) (Homo sapiens (Human))
Sequence (P15056 416-766): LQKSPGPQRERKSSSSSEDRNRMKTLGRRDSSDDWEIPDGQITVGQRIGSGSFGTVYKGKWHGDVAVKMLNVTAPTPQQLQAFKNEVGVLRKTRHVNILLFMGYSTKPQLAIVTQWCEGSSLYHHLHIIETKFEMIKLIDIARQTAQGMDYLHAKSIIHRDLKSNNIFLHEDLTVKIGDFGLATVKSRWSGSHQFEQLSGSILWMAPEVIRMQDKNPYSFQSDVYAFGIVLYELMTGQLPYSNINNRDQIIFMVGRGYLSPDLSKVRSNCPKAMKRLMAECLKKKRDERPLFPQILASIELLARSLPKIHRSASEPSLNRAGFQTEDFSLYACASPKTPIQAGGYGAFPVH
Assay: Biochemical Assay for B-Raf (1)
Conditions: Table J, assay version (1); read-out: BRAF (1) IC50
pIC50: −log10 of the molar value.

See these solved cases before continuing.
Cc1ccc(NC(=O)c2ccnc(C3(C#N)CC3)c2)cc1-c1cncc(-c2ccnc(NC(=O)C3CC3)c2)n1 : ≥ 7.00
Cc1ccc(NC(=O)c2cccc(C(C)(C)C#N)c2)cc1-c1cncc(-c2ccnc(C(=O)NC3CC3)c2)n1 : 6.30 to 7.00

Look up pIC50 for this molecule: COC(=O)Nc1cc(-c2cnnc(-c3cc(NC(=O)c4ccnc(C(F)F)c4)cnc3C)c2)ccn1
6.00 to 6.30

Form field: reported pIC50 of Cc1cc(-c2cc(NC(=O)c3ccnc(C(F)(F)F)c3)ccc2C)cc(-c2ccnc3c2CC(=O)N3)n1
≥ 7.00

Which measured pIC50 value corresponds to Cc1ncc(NC(=O)c2ccnc(C(F)(F)F)c2)cc1-c1cccc(-c2ccnc(N)c2)c1 ?
6.30 to 7.00

Param item = CC(=O)Nc1cc(-c2cccc(-c3cc(NC(=O)c4ccnc(C(F)(F)F)c4)c(F)cc3C)c2)ncn1 ; retrieve measured pIC50.
≥ 7.00

What does the record list as pIC50 for COCC(=O)Nc1cc(-c2cncc(-c3cc(NC(=O)c4ccnc(C(C)(C)C#N)c4)ccc3C)n2)ccn1 ?
≥ 7.00

====

Entries annotated with measured IC50
Test system: WM3928 cells
Experiment: WM3928 Cell Proliferation Assay (1)
Format: cell-based

Please review the following examples before continuing.
CNC(=O)c1cc(-c2cnnc(-c3cc(NC(=O)c4ccnc(C(C)(C)C#N)c4)ccc3C)c2)ccn1 [Example 314] : 500 to 1000 nM
COC(=O)Nc1cc(-c2cnnc(-c3cc(NC(=O)c4ccnc(C(C)(C)F)c4)ccc3C)c2)ccn1 [Example 375] : ≤ 100 nM
CNC(=O)c1cc(-c2cc(-c3cc(NC(=O)c4ccnc(C(C)(C)C#N)c4)ccc3C)cc(C3CC3)n2)ccn1 [Example 163] : ≤ 100 nM
COC(C)(C)c1cc(C(=O)Nc2cnc(C)c(-c3cccc(-c4cc(NC(=O)C5CC5)ncn4)c3)c2)ccn1 [Example 274] : ≤ 100 nM
Cc1ncc(NC(=O)c2cnnc(C3CC3)c2)cc1-c1ccnc(-c2ccnc(NC(=O)C3CC3)c2)n1 [Example 278] : 1000 to 10000 nM

Now consider the entry below.
# get_value(readout='IC50', item= Cc1ccc(NC(=O)c2ccnc(C3(C#N)CC3)c2)cc1-c1cncc(-c2cc(NC(=O)C3CC3)ncn2)c1 [Example 395] )
≤ 100 nM

====

// reported IC50 for each item listed
Target: B-Raf kinase (SEQ. ID NO: 2) (Homo sapiens (Human))
Assay: Biochemical Assay for B-Raf (1)
Details: Table J, biochemical assay (1); read-out: BRAF (1)

Recorded results for 8 compounds are shown here.
Cc1cc(F)c(NC(=O)c2ccnc(C(C)(C)F)c2)cc1-c1cncc(-c2cc(NC(=O)C3CC3)ncn2)c1 : ≤ 100 nM
Cc1ccc(NC(=O)[C@H]2CCO[C@@H](C(C)C)C2)cc1-c1cc(-c2ccnc(NC(=O)C3CC3)c2)cnn1 : ≤ 100 nM
CNC(=O)c1cc(-c2nccc(-c3cc(NC(=O)c4ccnc(C(C)(C)F)c4)c(F)cc3C)n2)ccn1 : 100 to 500 nM
COC(=O)Nc1cc(-c2cc(-c3cc(NC(=O)c4ccnc(C(C)(C)F)c4)ccc3C)cc(OCCO)n2)ccn1 : ≤ 100 nM
Cc1ncc(NC(=O)c2ccnc(C(C)(C)C#N)c2)cc1-c1cccc(-c2cnc3ccccn23)c1 : 500 to 1000 nM
COC(=O)Nc1cc(-c2nccc(-c3cc(NC(=O)c4ccnc(C(C)(C)F)c4)ccc3C)n2)ccn1 : ≤ 100 nM
Cc1ncc(NC(=O)c2ccnc(C(C)(C)C#N)c2)cc1-c1cccc(-c2ncnn3cccc23)c1 : 100 to 500 nM
Cc1ccc(NC(=O)c2ccnc(C(F)F)c2)cc1-c1cncc(-c2cc(NC(=O)C3CC3)ncn2)c1 : ≤ 100 nM

Requested read-out: IC50. Entry: Cc1cc(F)c(NC(=O)c2ccnc(C(C)(C)C#N)c2)cc1-c1cncc(-c2cc(NC(=O)C3CC3)ncn2)c1
≤ 100 nM

What measured IC50 goes with COC(=O)Nc1cc(-c2cc(-c3cc(NC(=O)c4ccnc(C(C)(C)F)c4)c(F)cc3C)cc(C)n2)ccn1 ?
100 to 500 nM

For the compound Cc1ccc(NC(=O)c2ccnc(C3CC3)c2)cc1-c1cncc(-c2cc(NC(=O)C3CC3)ncn2)c1 , what IC50 is on record?
≤ 100 nM

What measured IC50 goes with CNC(=O)c1cc(-c2ccnc(-c3cc(NC(=O)CCC4(F)CC4)ccc3C)c2)ccn1 ?
500 to 1000 nM

====

Biological target: UniProt P15056
Assay: Biochemical Assay for B-Raf (1)
Conditions: Table J, assay version (1); read-out: BRAF (1) IC50
pIC50: −log10 of the molar value.
Metric name: pIC50

Example entries and their recorded answers appear below.
CNc1cc(-c2cccc(-c3cc(NC(=O)c4ccnc(C(C)(C)C#N)c4)cnc3C)c2)ncn1 : 6.30 to 7.00
CC(=O)Nc1cc(-c2cc(-c3cc(NC(=O)c4ccnc(C(F)(F)F)c4)ccc3C)ncn2)ccn1 : ≥ 7.00
Cc1ccc(NC(=O)c2ccnc(C(F)(F)F)c2)cc1-c1ccnc(-c2ccnc(N)c2)c1 : ≥ 7.00

For Cc1cc(F)c(NC(=O)c2cnnc(C3CC3)c2)cc1-c1ccnc(-c2ccnc(NC(=O)C3CC3)c2)n1 , what is its reported pIC50?
≥ 7.00

What measured pIC50 goes with Cc1ncc(NC(=O)c2ccnc(C3CC3)c2)cc1-c1cnc(C)c(-c2ccnc(NC(=O)C3CC3)c2)c1 ?
≥ 7.00

Requested field: pIC50. Item: Cc1ncc(NC(=O)c2cnn(C(C)(C)C)c2)cc1-c1ccnc(-c2ccnc(NC(=O)C3CC3)c2)n1
≥ 7.00

Could you tell me which pIC50 is on file for CNC(=O)c1cc(-c2cc(-c3cc(NC(=O)c4ccnc(C(C)(C)C#N)c4)c(F)cc3C)ccn2)ccn1 ?
6.30 to 7.00

Using the record for Cc1ncc(NC(=O)C2CCOCC2)cc1-c1cccc(-c2cc(NC(=O)C3CC3)ncn2)c1 , report its pIC50.
5.00 to 6.00

Recorded pIC50 of Cc1ccc(NC(=O)c2ccnc(C(F)(F)F)c2)cc1-c1cc(-c2ccnc(N)c2)n(C)c(=O)c1 , please.
6.00 to 6.30

Using the record for Cc1ncc(NC(=O)c2ccnc(C(C)(C)C#N)c2)cc1-c1ccnc(-c2ccnc(NC(=O)C3CC3)c2)n1 , report its pIC50.
≥ 7.00

Value lookup for pIC50; key = CC(=O)Nc1cc(-c2nccc(-c3cc(NC(=O)c4ccnc(C5(C#N)CC5)c4)ccc3C)n2)ccn1
≥ 7.00

====

Biological target: C-Raf kinase (SEQ. ID NO: 3) (Homo sapiens (Human), UniProt P04049, Y340D/Y341D)
Sequence (P04049 307-648 Y340D/Y341D): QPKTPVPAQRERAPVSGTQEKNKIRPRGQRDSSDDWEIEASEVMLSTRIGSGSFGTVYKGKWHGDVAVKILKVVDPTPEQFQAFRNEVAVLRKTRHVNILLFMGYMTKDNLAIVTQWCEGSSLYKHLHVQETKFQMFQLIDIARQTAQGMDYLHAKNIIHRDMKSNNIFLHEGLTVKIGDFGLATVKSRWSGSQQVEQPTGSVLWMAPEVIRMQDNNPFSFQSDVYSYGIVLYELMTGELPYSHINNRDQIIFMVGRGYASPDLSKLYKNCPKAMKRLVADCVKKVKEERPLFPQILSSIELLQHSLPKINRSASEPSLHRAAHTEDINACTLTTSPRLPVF
Assay: Biochemical Assay for C-Raf (1)
Settings: Table J, assay version (1); read-out: CRAF (1) IC50
Method: Biochemical Assay for C-Raf (1) Activity of C-Raf kinase (SEQ. ID NO: 3) was determined spectroscopically using a coupled pyruvate kinase/lactate dehydrogenase assay that continuously monitors the ATP hydrolysis-dependent oxidation of NADH (e.g., Schindler et al., Science, 2000, 289, 1938-1942). […] Inhibition of C-Raf was measured by adding serial diluted test compound (final assay concentration of 1% DMSO). […] The reaction rate was calculated using the 4 to 5 h time frame. […]
Metric name: IC50

For orientation, consider the following solved cases.
Cc1cc(F)c(NC(=O)c2ccnc(C(C)(C)C#N)c2)cc1-c1ccnc(-c2ccnc(NC=O)c2)c1 : ≤ 0.1 µM
Cc1ccc(NC(=O)c2cc(C(F)(F)F)ccn2)cc1-c1ccnc(-c2ccnc(NC(=O)C3CC3)c2)n1 : ≤ 0.1 µM
CNC(=O)c1cc(-c2cncc(-c3cc(NC(=O)c4cc(C(F)(F)F)cc(CN(C)C)n4)ccc3C)n2)ccn1 : 0.1 to 0.5 µM
Cc1cc(-c2cc(-c3cc(NC(=O)c4ccnc(C(C)(C)C#N)c4)ccc3C)ccn2)ccn1 : ≤ 0.1 µM
COC(=O)Nc1cc(-c2cnnc(-c3cc(NC(=O)c4ccnc(C(F)F)c4)cnc3C)c2)ccn1 : 0.1 to 0.5 µM
Cc1ncc(NC(=O)c2ccnc(C(F)(F)F)c2)cc1-c1cccc(-c2ccnc(NC(=O)C3CC3)c2)c1 : ≤ 0.1 µM

Query molecule follows.
Return reported IC50; argument: Cc1ccc(NC(=O)C2CN(C)CCO2)cc1-c1cccc(-c2cc(NC(=O)C3CC3)ncn2)c1 (centres unmarked)
≤ 0.1 µM

====

Molecular target: C-Raf kinase (SEQ. ID NO: 3) (Homo sapiens (Human), UniProt P04049, Y340D/Y341D)
Experiment: Biochemical Assay for C-Raf (1)
Conditions: Table J, assay version (1); read-out: CRAF (1) IC50
pIC50: −log10 of the molar value.
Metric name: pIC50

Cc1ccc(NC(=O)c2ccnc(C(C)(C)C#N)c2)cc1-c1ccnc(-c2ccnc(C(=O)NC3CC3)c2)c1 [Example 162] : 6.30 to 7.00
COC(=O)Nc1cc(-c2cc(-c3cc(NC(=O)c4ccnc(C(C)(C)C#N)c4)c(F)cc3C)ccn2)ccn1 [Example 308] : ≥ 7.00
COC(=O)Nc1cc(-c2cc(-c3cc(NC(=O)c4ccnc(C(C)(C)F)c4)cnc3C)ccn2)ccn1 [Example 323] : ≥ 7.00
Cc1ncc(NC(=O)c2cnnc(C3CC3)c2)cc1-c1ccnc(-c2ccnc(NC(=O)C3CC3)c2)n1 [Example 278] : ≥ 7.00

Dear colleague, I am looking for the recorded pIC50 of the following molecule: CC(=O)Nc1cc(-c2ccnc(-c3cc(NC(=O)c4ccnc(C(C)(C)C#N)c4)ccc3C)n2)ccn1 [Example 103]
≥ 7.00

Give the measured pIC50 of Cc1ccc(NC(=O)c2ccnc(C(F)(F)F)c2)cc1-c1ccnc(-c2ccnc(NC(=O)C3CC3)c2)c1 [Example 54] .
≥ 7.00

Field request: pIC50 | item: Cc1ncc(NC(=O)C2CCOC2)cc1-c1ccnc(-c2ccnc(NC(=O)C3CC3)c2)n1 (stereo not drawn) [Example 337]
5.00 to 6.00

Consider the molecule COC(=O)Nc1nccc(-c2cccc(-c3cc(NC(=O)c4ccnc(C(C)(C)C#N)c4)cnc3C)c2)n1 [Example 290] and give its measured pIC50.
6.30 to 7.00

I'd like to know its pIC50. The molecule in question is Cc1ccc(NC(=O)c2ccnc(C(C)(C)C#N)c2)cc1-c1cccc(-c2cc(N)ncn2)c1 [Example 267]
≥ 7.00

Reported pIC50, molecule Cc1ccc(NC(=O)c2ccnc(C(C)(C)C#N)c2)cc1-c1cc(-c2ccnc3[nH]ccc23)cnn1 [Example 369] : ____
≥ 7.00

Fill in the blank: the reported pIC50 of Cc1cc(F)c(NC(=O)c2ccnc(C(C)(C)C#N)c2)cc1-c1cc(-c2ccnc(NC(=O)C3CC3)c2)cnn1 [Example 298] is ____.
≥ 7.00

I'd like to know its pIC50. The molecule in question is Cc1ncc(NC(=O)c2ccnc(C(C)(C)C#N)c2)cc1-c1cccc(-c2ccnc3c2CC(=O)N3)c1 [Example 105]
≥ 7.00

Query (molecule): Cc1ccc(NC(=O)c2cccc(C(C)(C)C#N)c2)cc1-c1cc(OCCO)nc(-c2ccnc3c2CC(=O)N3)c1 [Example 108] ; field requested: pIC50
≥ 7.00

Please look up its pIC50: Cc1ccc(NC(=O)c2ccnc(C(F)(F)F)c2)cc1-c1cccc(-c2ccnc(NC(=O)CC#N)c2)c1 [Example 62]
≥ 7.00

pIC50 for COC(C)(C)C(=O)Nc1cc(-c2cc(-c3cc(NC(=O)c4ccnc(C(C)(C)C#N)c4)cnc3C)ccn2)ccn1 [Example 209] ?
6.00 to 6.30
